The following compounds are listed with their measured growth inhibition values.
# experiment-description: NCI Yeast Anticancer Drug Screen. Data for the rad50 strain (AID 155);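 further: 0% = growth of vehicle-only cultures of the same strain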
# measurement-parameters: S. cerevisiae rad50 strain growth inhibition; at 50.0 µM; hits give high values
Compounds without any hit were thinned out: in the full panel of roughly 79,000, 15% have a hit.
// return numeric value only (unit: %, not printed)

compound: C=CCC1=C(C)C(OC(=O)/C=C/c2ccco2)CC1=O (stereo not drawn)
growth inhibition [%]: 10.3

compound: CC(C)OC(CCCl)c1ccccc1 (stereo not drawn)
growth inhibition [%]: -6.4

compound: COc1ccc(Cc2nc3c([nH]2)c(=O)n(C)c(=O)n3C)cc1
growth inhibition [%]: -0.05

compound: C/C=C/C[P+](Cc1ccccc1)(c1ccccc1)c1ccccc1
growth inhibition [%]: 59.6

compound: Cc1cc2nc3c(=O)[nH]c(=O)nc-3n(CCO)c2cc1C
growth inhibition [%]: -0.5

compound: Cc1ccc(N=Nc2ccc(N(C)C)cc2)cc1
growth inhibition [%]: 18.6

compound: C[Si]1(C)CC[Si](C)(C)OS(=O)(=O)O1
growth inhibition [%]: 8.2

compound: CCN(CC)CCOc1ccccc1C(C)C
growth inhibition [%]: 14.6

For the compound COC(=O)NN1C(C)=C(C(=O)OC)C2(C#N)C(C(=O)OC)=C(C)N(NC(=O)OC)C12N (stereo not drawn) , give its reported growth inhibition.
-14.4

For the compound CC(=O)Nc1ccc2ccccc2c1 , give its reported growth inhibition.
7.15

For the compound CC(=O)C1=C(O)C2(O)C(=O)c3c(c(C)c4ccc(C)c(O)c4c3O)CC2C(N)C1=O (stereo not drawn) , give its reported growth inhibition.
9.85
